Test system: COLO 205 colon
Assay: NCI tumour cell line growth inhibition, 48 h
Each record here notes measured TGI.
ENDPOINT LABEL: TGI

{"columns": ["MOLECULE", "RESULT"],
 "data": [
  ["O=C1/C(=C\\c2ccc(Cl)cc2)CN(C(=O)c2ccccc2)C/C1=C\\c1ccc(Cl)cc1", "10.5 µM"],
  ["CSc1nc(SC)c2cnn(-c3ccnc4cc(Cl)ccc34)c2n1", "> 100 µM"],
  ["COC(=O)C(=O)C(C(=O)C(=O)Nc1ccccc1C(N)=O)c1nc2ccc([N+](=O)[O-])cc2[nH]c1=O (centres undefined)", "> 100 µM"],
  ["CC1=N/C(=C\\c2ccc(N)cc2)C(=O)N1Nc1nnc(NN2C(=O)/C(=C/c3ccc(N)cc3)N=C2C)c2ccccc12", "> 100 µM"]
]}

---

System: RPMI-8226 leukemia
Assay: NCI tumour cell line growth inhibition, 48 h
ENDPOINT LABEL: TGI

{"columns": ["COMPOUND", "RESULT"],
 "data": [
  ["NC(=S)Nc1c(S(N)(=O)=O)cc(S(N)(=O)=O)c(Cl)c1Cl", "> 100 µM"],
  ["NC(=S)N/N=C/c1cn(CCCl)c2ccccc12", "> 100 µM"],
  ["CCOc1ccc(N=C2NC(=O)C(CC(=O)Nc3ccc(Cl)cc3Cl)S2)cc1 (configuration not stated)", "> 100 µM"],
  ["S=C1NC(c2ccccc2)=NC(Cc2ccccc2)(c2ccccc2)N1c1ccccc1 (configuration not stated)", "> 100 µM"],
  ["Cc1ccc2[nH]c3c(C)c4cc[n+](C)cc4c(C)c3c2c1", "> 59.7 µM"],
  ["COC(=O)Nc1nc2ccc(C(=O)C3CC3)cc2[nH]1", "0.696 µM"],
  ["CCCc1c(O)c2ccccc2[nH]c1=O", "> 100 µM"],
  ["Cc1cc2c(=O)cc(-c3ccc(C(=O)O)cc3)oc2c(C(N)=O)c1C", "> 100 µM"],
  ["ClCc1nnc2n1-c1ccc(Cl)cc1SC2", "> 100 µM"],
  ["CN1CCC2(CC1)C(=O)N(NC(N)=O)C(=O)C2c1ccccc1 (configuration not stated)", "> 100 µM"],
  ["N=C(N)SCCSC(=N)N", "> 100 µM"],
  ["COc1cc(/C=C2\\N=C(c3ccccc3)N(c3ccc4c(c3)Sc3cc(N5C(=O)/C(=C/c6cc(OC)c(OC)c(OC)c6)N=C5c5ccccc5)ccc3N4)C2=O)cc(OC)c1OC", "88.9 µM"],
  ["O=C1CCN(CCC(F)(F)C(F)(F)C(F)(F)C(F)(F)F)C(=S)N1", "> 100 µM"],
  ["CCOC(=O)c1csc(NC(=O)CCN2CCOCC2)n1", "> 100 µM"],
  ["CCOC(=O)c1c2c(n(Cc3ccccc3)c1C)-c1nc[nH]c1C(=O)C2=O", "10.7 µM"],
  ["CC[C@H]1[C@@H](C)C=C[C@@H](C)N1S(=O)(=O)c1ccc(C)cc1", "> 100 µM"],
  ["CC1OC(n2ccc3ccc([N+](=O)[O-])cc32)C(O)C(O)C1O (configuration not stated)", "> 100 µM"],
  ["Cc1cc(N(C)C)ccc1N=Nc1ccc2ncccc2c1", "> 100 µM"],
  ["CO[C@@H]1C[C@H]2[C@@H]3CC[C@H]([C@@H](C)COC(C)=O)[C@@]3(C)CC[C@@H]2[C@@]2(C)CC[C@H]3C[C@]312", "29.9 µM"],
  ["O=C(O)[C@@]1(Cc2ccc(O)cc2)C[C@@H]2Cc3ccccc3N2N1", "> 100 µM"],
  ["CC1(C)CC(=O)c2c(nc3c(ccc4ccccc43)c2-c2ccc(NC(=O)CCCCCCCCC(=O)Nc3ccc(-c4c5c(nc6c4ccc4ccccc46)CC(C)(C)CC5=O)cc3)cc2)C1", "> 100 µM"],
  ["CCOC(=O)C1C(c2ccccc2)C2(C#N)C(=N)OC1(C)C2(C#N)C#N (configuration not stated)", "42.6 µM"]
]}
